test: Equilibrium oil-water solubility and phase distribution coefficient; assay type: physicochemical; conditions: vegetable oil/water, stirred overnight; read-out: Water Phase Solubility
Listed below: solubility values for each entry.
Number only, in µg/mL; omit the unit.

Use the examples below as a reference point.
CCCCCCCCCC(=O)OC[C@H](O)[C@H]1OC(=O)C(O)=C1O [ascorbyl caprate, reference compound]
5300
CCCCCCCCCCCCCCCC(=O)OC[C@H](O)[C@H]1OC(=O)C(O)=C1O [ascorbyl palmitate, reference compound]
65
CCCCCCCCCCCC(=O)OC[C@@H](O)[C@H]1OC(=O)C(O)=C1O [erythorbyl laurate]
350
CCCCCCCCCC(=O)OC[C@@H](O)[C@H]1OC(=O)C(O)=C1O [erythorbyl caprate]
2500

Next:
Qu. Returns the measured solubility for the input compound. Input: CCCCCCCCCCCC(=O)OC[C@H](O)[C@H]1OC(=O)C(O)=C1O [ascorbyl laurate]
Ans. 140

---

test: Equilibrium oil-water solubility and phase distribution coefficient; format: physicochemical; conditions: organic solvent or mixture; vegetable oil/water, stirred overnight; read-out: Oil Phase Solubility
metricName: solubility

CCCCCCCCCCCC(=O)OC[C@@H](O)[C@H]1OC(=O)C(O)=C1O [erythorbyl laurate]
450 µg/mL
CCCCCCCCCC(=O)OC[C@@H](O)[C@H]1OC(=O)C(O)=C1O [erythorbyl caprate]
1500 µg/mL

Qu. Please look up its solubility: CCCCCCCCCC(=O)OC[C@H](O)[C@H]1OC(=O)C(O)=C1O [ascorbyl caprate, reference compound]
Ans. 100 µg/mL

Qu. Also CCCCCCCCCCCC(=O)OC[C@H](O)[C@H]1OC(=O)C(O)=C1O [ascorbyl laurate] ?
Ans. 250 µg/mL

Qu. Repeat for the following compound: CCCCCCCCCCCCCCCC(=O)OC[C@H](O)[C@H]1OC(=O)C(O)=C1O [ascorbyl palmitate, reference compound]
Ans. 110 µg/mL

Where these numbers come from: patent US4251563A
